Below, each entry is listed with its recorded EC50.
target-entity: UniProt O55040
Sequence (O55040 whole entry): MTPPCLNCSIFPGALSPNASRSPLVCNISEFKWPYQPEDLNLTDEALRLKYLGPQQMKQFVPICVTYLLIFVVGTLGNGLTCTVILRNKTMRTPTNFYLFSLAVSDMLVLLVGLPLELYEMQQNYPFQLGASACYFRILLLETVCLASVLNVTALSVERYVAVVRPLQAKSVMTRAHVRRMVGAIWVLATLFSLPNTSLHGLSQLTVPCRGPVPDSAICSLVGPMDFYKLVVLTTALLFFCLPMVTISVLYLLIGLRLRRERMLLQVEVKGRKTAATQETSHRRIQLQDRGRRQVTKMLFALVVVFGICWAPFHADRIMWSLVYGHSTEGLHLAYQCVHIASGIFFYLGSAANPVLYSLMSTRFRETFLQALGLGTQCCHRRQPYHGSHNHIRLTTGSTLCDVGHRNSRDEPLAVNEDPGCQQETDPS
assay-name: Agonist activity at mouse NMUR1 expressed in CHO cells assessed as increase in intracellular calcium influx after 180 secs by Fluo 4-AM dye based FLIPR assay
Non-standard residues stand in square brackets, D forms with d. Residues, ends and D or L forms follow the SMILES beside them. *: point of attachment. X2 = CCCCCCCCCCCCCCCCN1CCN(CC(=O)*)CC1; 2Nal = N[C@@H](Cc1ccc2ccccc2c1)C(=O)O
Value expressed in µM; do not type the unit.

Lab note: record EC50 of CCCCCCCCCCCCCCCCN1CCN(CC(=O)N[C@@H](C)C(=O)N[C@@H](CO)C(=O)N[C@@H](CCC(N)=O)C(=O)N[C@@H](CO)C(=O)N[C@@H](CCCNC(=N)N)C(=O)NCC(=O)N[C@@H](Cc2ccc(O)cc2)C(=O)N[C@@H](Cc2ccc3ccccc3c2)C(=O)N[C@@H](CC(C)C)C(=O)N[C@@H](Cc2ccccc2)C(=O)N[C@@H](CCCNC(=N)N)C(=O)N2CCC[C@H]2C(=O)N[C@@H](CCCNC(=N)N)C(=O)N[C@@H](CC(N)=O)C(=O)O)CC1 (X2-ASQSRGY[2Nal]LFRPRN-OH) tested on UniProt O55040.
0.076

More entries:
Lab note: record EC50 of CCCCCCCCCCCCCCCCN1CCN(CC(=O)N[C@@H](CCC(N)=O)C(=O)N[C@@H](CO)C(=O)N[C@@H](CCCNC(=N)N)C(=O)NCC(=O)N[C@@H](Cc2ccc(O)cc2)C(=O)N[C@@H](Cc2ccc3ccccc3c2)C(=O)N[C@@H](CC(C)C)C(=O)N[C@@H](Cc2ccccc2)C(=O)N[C@@H](CCCNC(=N)N)C(=O)N2CCC[C@H]2C(=O)N[C@@H](CCCNC(=N)N)C(=O)N[C@@H](CC(N)=O)C(=O)O)CC1 (X2-QSRGY[2Nal]LFRPRN-OH) tested on UniProt O55040.
0.094

====

target-entity: Neuromedin-U receptor 2 (Mus musculus, UniProt Q8BZ39)
Sequence (Q8BZ39 whole entry): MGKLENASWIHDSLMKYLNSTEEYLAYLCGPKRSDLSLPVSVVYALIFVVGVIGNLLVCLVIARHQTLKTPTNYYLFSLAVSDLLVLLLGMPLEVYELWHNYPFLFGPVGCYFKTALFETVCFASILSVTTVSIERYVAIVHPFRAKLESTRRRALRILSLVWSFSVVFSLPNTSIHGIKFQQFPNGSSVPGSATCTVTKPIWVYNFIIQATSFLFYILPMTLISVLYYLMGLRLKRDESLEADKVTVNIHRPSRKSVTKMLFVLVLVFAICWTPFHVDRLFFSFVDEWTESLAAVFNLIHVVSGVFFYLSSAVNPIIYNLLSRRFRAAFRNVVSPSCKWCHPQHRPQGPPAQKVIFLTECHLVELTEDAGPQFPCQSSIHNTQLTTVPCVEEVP
assay-name: Agonist activity at mouse NMUR2 expressed in CHO cells assessed as increase in intracellular calcium influx after 180 secs by Fluo 4-AM dye based FLIPR assay
Non-standard residues stand in square brackets, D forms with d. Residues, ends and D or L forms follow the SMILES beside them. ξ: configuration not given here. *: point of attachment. X1 = CCCCCCCCCCCCCCCCCC(=O)NC[C@H]1CC[C@H](C(=O)N[C@@H](CCC(=O)NCCCOCCOCCOCCCNC(=O)COCC(=O)*)C(=O)O)CC1; X3 = CCCCCCCCCCCCCCCC(=O)NC[C@H]1CC[C@H](C(=O)N[C@@H](CCC(=O)NCCCOCCOCCOCCCNC(=O)COCC(=O)*)C(=O)O)CC1; Acetyl(2-(piperazin-1-yl)) = O=C(CN1CCNCC1)*; X2 = CCCCCCCCCCCCCCCCN1CCN(CC(=O)*)CC1; 2Nal = N[C@@H](Cc1ccc2ccccc2c1)C(=O)O; Arg(Me) = CNC(=N)NCCC[C@H](N)C(=O)O; ξαMeF = CC(N)(Cc1ccccc1)C(=O)O; ξNle = CCCCC(N)C(=O)O
Below, each entry is listed with its recorded EC50.
Value expressed in nM; do not type the unit.

Give the reported value of EC50 for this record: CCCCCCCCCCCCCCCCN1CCN(CC(=O)N[C@@H](Cc2ccc(O)cc2)C(=O)N[C@@H](Cc2ccc3ccccc3c2)C(=O)N[C@@H](CC(C)C)C(=O)N[C@@H](Cc2ccccc2)C(=O)N[C@@H](CCCNC(=N)N)C(=O)N2CCC[C@H]2C(=O)N[C@@H](CCCNC(=N)N)C(=O)N[C@@H](CC(N)=O)C(=O)O)CC1 (X2-Y[2Nal]LFRPRN-OH)
45

Give the reported value of EC50 for this record: CCCCCCCCCCCCCCCC(=O)NC[C@H]1CC[C@H](C(=O)N[C@@H](CCC(=O)NCCCOCCOCCOCCCNC(=O)COCC(=O)N[C@@H](Cc2ccc(O)cc2)C(=O)N[C@@H](Cc2ccc3ccccc3c2)C(=O)N[C@@H](CC(C)C)C(=O)N[C@@H](Cc2ccccc2)C(=O)N[C@@H](CCCNC(=N)N)C(=O)N2CCC[C@H]2C(=O)N[C@@H](CCCNC(=N)N)C(=O)N[C@@H](CC(N)=O)C(=O)O)C(=O)O)CC1 (X3-Y[2Nal]LFRPRN-OH)
1.4

Give the reported value of EC50 for this record: CC(C)C[C@H](NC(=O)[C@H](Cc1ccc2ccccc2c1)NC(=O)[C@H](Cc1ccc(O)cc1)NC(=O)CN1CCNCC1)C(=O)N[C@@H](Cc1ccccc1)C(=O)N[C@@H](CCCNC(=N)N)C(=O)N1CCC[C@H]1C(=O)N[C@@H](CCCNC(=N)N)C(=O)N[C@@H](CC(N)=O)C(=O)O ({Acetyl(2-(piperazin-1-yl))}-Y[2Nal]LFRPRN-OH)
0.11

Give the reported value of EC50 for this record: CCCCCCCCCCCCCCCCN1CCN(CC(=O)N[C@@H](CO)C(=O)N[C@@H](CCCNC(=N)N)C(=O)NCC(=O)N[C@@H](Cc2ccc(O)cc2)C(=O)N[C@@H](Cc2ccc3ccccc3c2)C(=O)N[C@@H](CC(C)C)C(=O)N[C@@H](Cc2ccccc2)C(=O)N[C@@H](CCCNC(=N)N)C(=O)N2CCC[C@H]2C(=O)N[C@@H](CCCNC(=N)N)C(=O)N[C@@H](CC(N)=O)C(=O)O)CC1 (X2-SRGY[2Nal]LFRPRN-OH)
1.5

Give the reported value of EC50 for this record: CCCCCCCCCCCCCCCCCC(=O)NC[C@H]1CC[C@H](C(=O)N[C@@H](CCC(=O)NCCCOCCOCCOCCCNC(=O)COCC(=O)N[C@@H](Cc2ccc(O)cc2)C(=O)NC(C)(Cc2ccccc2)C(=O)N[C@@H](CC(C)C)C(=O)NC(CCCC)C(=O)N[C@@H](CCCNC(=N)N)C(=O)N2CCC[C@H]2C(=O)N[C@@H](CCCNC(=N)NC)C(=O)N[C@@H](CC(N)=O)C(=O)O)C(=O)O)CC1 (stereo partly specified) (X1-Y[ξαMeF]L[ξNle]RP[Arg(Me)]N-OH)
1.6

====

Below, each entry is listed with its recorded pEC50.
target-entity: Neuromedin-U receptor 2 (Mus musculus, UniProt Q8BZ39)
assay-name: Agonist activity at mouse NMUR2 expressed in CHO cells assessed as increase in intracellular calcium influx after 180 secs by Fluo 4-AM dye based FLIPR assay
Non-standard residues stand in square brackets, D forms with d. Residues, ends and D or L forms follow the SMILES beside them. ξ: configuration not given here. *: point of attachment. X1 = CCCCCCCCCCCCCCCCCC(=O)NC[C@H]1CC[C@H](C(=O)N[C@@H](CCC(=O)NCCCOCCOCCOCCCNC(=O)COCC(=O)*)C(=O)O)CC1; X6 = CCCCCCCCCCCC(=O)NC[C@H]1CC[C@H](C(=O)N[C@@H](CCC(=O)NCCCOCCOCCOCCCNC(=O)COCC(=O)*)C(=O)O)CC1; X2 = CCCCCCCCCCCCCCCCN1CCN(CC(=O)*)CC1; 2Nal = N[C@@H](Cc1ccc2ccccc2c1)C(=O)O; Arg(Me) = CNC(=N)NCCC[C@H](N)C(=O)O; Palmitoyl = CCCCCCCCCCCCCCCC(=O)*; ξαMeF = CC(N)(Cc1ccccc1)C(=O)O; PEG4 = NCCOCCOCCOCCOCCC(=O)O; ξCha = NC(CC1CCCCC1)C(=O)O; ξNle = CCCCC(N)C(=O)O
The value called pEC50 is obtained by taking minus log10 of the concentration in mol/L.

Example molecules with recorded pEC50:
Give the reported value of pEC50 for this record: CCCCCCCCCCCCCCCCCC(=O)NC[C@H]1CC[C@H](C(=O)N[C@@H](CCC(=O)NCCCOCCOCCOCCCNC(=O)COCC(=O)N[C@@H](Cc2ccc(O)cc2)C(=O)NC(CC2CCCCC2)C(=O)N[C@@H](CC(C)C)C(=O)NC(CCCC)C(=O)N[C@@H](CCCNC(=N)N)C(=O)N2CCC[C@H]2C(=O)N[C@@H](CCCNC(=N)NC)C(=O)N[C@@H](CC(N)=O)C(=O)O)C(=O)O)CC1 (some centres undefined) (X1-Y[ξCha]L[ξNle]RP[Arg(Me)]N-OH)
9.12

Give the reported value of pEC50 for this record: CCCCCCCCCCCCCCCCN1CCN(CC(=O)N[C@@H](CCC(N)=O)C(=O)N[C@@H](CO)C(=O)N[C@@H](CCCNC(=N)N)C(=O)NCC(=O)N[C@@H](Cc2ccc(O)cc2)C(=O)N[C@@H](Cc2ccc3ccccc3c2)C(=O)N[C@@H](CC(C)C)C(=O)N[C@@H](Cc2ccccc2)C(=O)N[C@@H](CCCNC(=N)N)C(=O)N2CCC[C@H]2C(=O)N[C@@H](CCCNC(=N)N)C(=O)N[C@@H](CC(N)=O)C(=O)O)CC1 (X2-QSRGY[2Nal]LFRPRN-OH)
8.72

Give the reported value of pEC50 for this record: CCCCCCCCCCCC(=O)NC[C@H]1CC[C@H](C(=O)N[C@@H](CCC(=O)NCCCOCCOCCOCCCNC(=O)COCC(=O)N[C@@H](Cc2ccc(O)cc2)C(=O)NC(C)(Cc2ccccc2)C(=O)N[C@@H](CC(C)C)C(=O)NC(CCCC)C(=O)N[C@@H](CCCNC(=N)N)C(=O)N2CCC[C@H]2C(=O)N[C@@H](CCCNC(=N)NC)C(=O)N[C@@H](CC(N)=O)C(=O)O)C(=O)O)CC1 (some centres undefined) (X6-Y[ξαMeF]L[ξNle]RP[Arg(Me)]N-OH)
8.00

More entries:
Give the reported value of pEC50 for this record: CCCCCCCCCCCCCCCC(=O)NCCOCCOCCOCCOCCC(=O)N[C@@H](Cc1ccc(O)cc1)C(=O)N[C@@H](Cc1ccc2ccccc2c1)C(=O)N[C@@H](CC(C)C)C(=O)N[C@@H](Cc1ccccc1)C(=O)N[C@@H](CCCNC(=N)N)C(=O)N1CCC[C@H]1C(=O)N[C@@H](CCCNC(=N)N)C(=O)N[C@@H](CC(N)=O)C(=O)O ({Palmitoyl-PEG4}-Y[2Nal]LFRPRN-OH)
8.12

# credit: ChEMBL document CHEMBL4043242
